All values here come from the supplement of paper PMC5998384.

System: HeLa Kyoto
Assay: solubility change mitosis vs G1/S (difference of NP-40 vs SDS log2 ratios) (log2 ratio difference); higher = more soluble in mitosis

{"sequence entry": "MAEEVSTLMKATVLMRQPGRVQEIVGALRKGGGDRLQVISDFDMTLSRFAYNGKRCPSSYNILDNSKIISEECRKELTALLHHYYPIEIDPHRTVKEKLPHMVEWWTKAHNLLCQQKIQKFQIAQVVRESNAMLREGYKTFFNTLYHNNIPLFIFSAGIGDILEEIIRQMKVFHPNIHIVSNYMDFNEDGFLQGFKGQLIHTYNKNSSACENSGYFQQLEGKTNVILLGDSIGDLTMADGVPGVQNILKIGFLNDKVEERRERYMDSYDIVLEKDETLDVVNGLLQHILCQGVQLEMQGP [NT5C3B]", "solubility change mitosis (log2)": -0.136}
{"sequence entry": "MELPAVNLKVILLGHWLLTTWGCIVFSGSYAWANFTILALGVWAVAQRDSIDAISMFLGGLLATIFLDIVHISIFYPRVSLTDTGRFGVGMAILSLLLKPLSCCFVYHMYRERGGELLVHTGFLGSSQDRSAYQTIDSAEAPADPFAVPEGRSQDARGY [AGTRAP]", "solubility change mitosis (log2)": -0.217}

----------
System: HeLa Kyoto
Test: thermal stability score vs G1/S (z-score of summed log2 fold changes over temperatures); higher = more thermally stable than in G1/S
Conditions: cell cycle stage: mitosis

{"sequence entry": "MAAERGAGQQQSQEMMEVDRRVESEESGDEEGKKHSSGIVADLSEQSLKDGEERGEEDPEEEHELPVDMETINLDRDAEDVDLNHYRIGKIEGFEVLKKVKTLCLRQNLIKCIENLEELQSLRELDLYDNQIKKIENLEALTELEILDISFNLLRNIEGVDKLTRLKKLFLVNNKISKIENLSNLHQLQMLELGSNRIRAIENIDTLTNLESLFLGKNKITKLQNLDALTNLTVLSMQSNRLTKIEGLQNLVNLRELYLSHNGIEVIEGLENNNKLTMLDIASNRIKKIENISHLTELQEFWMNDNLLESWSDLDELKGARSLETVYLERNPLQKDPQYRRKVMLALPSVRQIDATFVRF [PPP1R7]", "thermal stability score": -2.37}

----------
Tested on: HeLa Kyoto
Assay: solubility in G1/S (NP-40 vs SDS abundance) (log2 ratio); higher = more soluble
Conditions: cell cycle stage: G1/S
measured property: solubility in G1/S (log2)

{"sequence entry": "MGGFFSSIFSSLFGTREMRILILGLDGAGKTTILYRLQVGEVVTTIPTIGFNVETVTYKNLKFQVWDLGGQTSIRPYWRCYYSNTDAVIYVVDSCDRDRIGISKSELVAMLEEEELRKAILVVFANKQDMEQAMTSSEMANSLGLPALKDRKWQIFKTSATKGTGLDEAMEWLVETLKSRQ [ARL1]", "target of assay": "HeLa Kyoto", "measured property": "solubility in G1/S (log2)", "result": -0.143}
{"sequence entry": "MNNLSFSELCCLFCCPPCPGKIASKLAFLPPDPTYTLMCDESGSRWTLHLSERADWQYSSREKDAIECFMTRTSKGNRIACMFVRCSPNAKYTLLFSHGNAVDLGQMSSFYIGLGSRINCNIFSYDYSGYGASSGKPTEKNLYADIEAAWLALRTRYGIRPENVIIYGQSIGTVPSVDLAARYESAAVILHSPLTSGMRVAFPDTKKTYCFDAFPNIDKISKITSPVLIIHGTEDEVIDFSHGLALFERCQRPVEPLWVEGAGHNDVELYGQYLERLKQFVSQELVNL [ABHD17B]", "target of assay": "HeLa Kyoto", "measured property": "solubility in G1/S (log2)", "result": 0.0257}
{"sequence entry": "MAAQSAPKVVLKSTTKMSLNERFTNMLKNKQPTPVNIRASMQQQQQLASARNRRLAQQMENRPSVQAALKLKQSLKQRLGKSNIQARLGRPIGALARGAIGGRGLPIIQRGLPRGGLRGGRATRTLLRGGMSLRGQNLLRGGRAVAPRMGLRRGGVRGRGGPGRGGLGRGAMGRGGIGGRGRGMIGRGRGGFGGRGRGRGRGRGALARPVLTKEQLDNQLDAYMSKTKGHLDAELDAYMAQTDPETND [CHTOP]", "target of assay": "HeLa Kyoto", "measured property": "solubility in G1/S (log2)", "result": -0.246}
{"sequence entry": "MLSRVVLSAAATAAPSLKNAAFLGPGVLQATRTFHTGQPHLVPVPPLPEYGGKVRYGLIPEEFFQFLYPKTGVTGPYVLGTGLILYALSKEIYVISAETFTALSVLGVMVYGIKKYGPFVADFADKLNEQKLAQLEEAKQASIQHIQNAIDTEKSQQALVQKRHYLFDVQRNNIAMALEVTYRERLYRVYKEVKNRLDYHISVQNMMRRKEQEHMINWVEKHVVQSISTQQEKETIAKCIADLKLLAKKAQAQPVM [ATP5F1]", "target of assay": "HeLa Kyoto", "measured property": "solubility in G1/S (log2)", "result": 0.102}
{"sequence entry": "MADAAATAGAGGSGTRSGSKQSTNPADNYHLARRRTLQVVVSSLLTEAGFESAEKASVETLTEMLQSYISEIGRSAKSYCEHTARTQPTLSDIVVTLVEMGFNVDTLPAYAKRSQRMVITAPPVTNQPVTPKALTAGQNRPHPPHIPSHFPEFPDPHTYIKTPTYREPVSDYQVLREKAASQRRDVERALTRFMAKTGETQSLFKDDVSTFPLIAARPFTIPYLTALLPSELEMQQMEETDSSEQDEQTDTENLALHISMEDSGAEKENTSVLQQNPSLSGSRNGEENIIDNPYLRPVKKPKIRRKKSLS [TAF8]", "target of assay": "HeLa Kyoto", "measured property": "solubility in G1/S (log2)", "result": 0.116}
{"sequence entry": "MAEPDPSHPLETQAGKVQEAQDSDSDSEGGAAGGEADMDFLRNLFSQTLSLGSQKERLLDELTLEGVARYMQSERCRRVICLVGAGISTSAGIPDFRSPSTGLYDNLEKYHLPYPEAIFEISYFKKHPEPFFALAKELYPGQFKPTICHYFMRLLKDKGLLLRCYTQNIDTLERIAGLEQEDLVEAHGTFYTSHCVSASCRHEYPLSWMKEKIFSEVTPKCEDCQSLVKPDIVFFGESLPARFFSCMQSDFLKVDLLLVMGTSLQVQPFASLISKAPLSTPRLLINKEKAGQSDPFLGMIMGLGGGMDFDSKKAYRDVAWLGECDQGCLALAELLGWKKELEDLVRREHASIDAQSGAGVPNPSTSASPKKSPPPAKDEARTTEREKPQ [SIRT2]", "target of assay": "HeLa Kyoto", "measured property": "solubility in G1/S (log2)", "result": 0.229}

----------
Test system: HeLa Kyoto
Test: solubility change mitosis vs G1/S (difference of NP-40 vs SDS log2 ratios) (log2 ratio difference); higher = more soluble in mitosis

{"substance": "MEGGLGRAVCLLTGASRGFGRTLAPLLASLLSPGSVLVLSARNDEALRQLEAELGAERSGLRVVRVPADLGAEAGLQQLLGALRELPRPKGLQRLLLINNAGSLGDVSKGFVDLSDSTQVNNYWALNLTSMLCLTSSVLKAFPDSPGLNRTVVNISSLCALQPFKGWALYCAGKAARDMLFQVLALEEPNVRVLNYAPGPLDTDMQQLARETSVDPDMRKGLQELKAKGKLVDCKVSAQKLLSLLEKDEFKSGAHVDFYDK [SPR]", "target of assay": "HeLa Kyoto", "solubility change mitosis (log2)": -0.117}
{"substance": "MAPLRFSANLSWLFPELSGLPARVRAAGSSGFEAVEVAWPYAETPEALARAAREAGLRLVLINTPPGDQEKGEMGLGAVPGRQAAFREGLEQAVRYAKALGCPRIHLMAGRVPQGADRIAVKAEMEAVFLENLRHAAGVLAQEDLVGLLEPINTRITDPQYFLDTPQQAAAILQKVGRPNLQLQMDIFHWQIMDGNLTGNIREFLPIVGHVQVAQVPGRGEPSSPGELNFPYLFQLLEDEGYKGFVGCEYQPRGDTVEGLSWLRSYWDRRGHPEAGQ [HYI]", "target of assay": "HeLa Kyoto", "solubility change mitosis (log2)": 0.234}
{"substance": "MEVHGKPKASPSCSSPTRDSSGVPVSKELLTAGSDGRGGIWDRLLINSQPKSRKTSTLQTVRIERSPLLDQVQTFLPQMARANEKLRKEMAAAPPGRFNIENIDGPHSKVIQMDVALFEMNQSDSKEVDSSEESSQDSSENSSESEDEDDSIPSEVTIDNIKLPNSEGGKGKIEVLDSPASKKKK [C12ORF45]", "target of assay": "HeLa Kyoto", "solubility change mitosis (log2)": 0.0873}
{"substance": "MADQRQRSLSTSGESLYHVLGLDKNATSDDIKKSYRKLALKYHPDKNPDNPEAADKFKEINNAHAILTDATKRNIYDKYGSLGLYVAEQFGEENVNTYFVLSSWWAKALFVFCGLLTCCYCCCCLCCCFNCCCGKCKPKAPEGEETEFYVSPEDLEAQLQSDEREATDTPIVIQPASATETTQLTADSHPSYHTDGFN [DNAJC5]", "target of assay": "HeLa Kyoto", "solubility change mitosis (log2)": -0.273}
{"substance": "HNRNPAB", "target of assay": "HeLa Kyoto", "solubility change mitosis (log2)": 0.251}
{"substance": "MPSSPLRVAVVCSSNQNRSMEAHNILSKRGFSVRSFGTGTHVKLPGPAPDKPNVYDFKTTYDQMYNDLLRKDKELYTQNGILHMLDRNKRIKPRPERFQNCKDLFDLILTCEERVYDQVVEDLNSREQETCQPVHVVNVDIQDNHEEATLGAFLICELCQCIQHTEDMENEIDELLQEFEEKSGRTFLHTVCFY [SSU72]", "target of assay": "HeLa Kyoto", "solubility change mitosis (log2)": -0.0234}
{"substance": "MSLLLYYALPALGSYAMLSIFFLRRPHLLHTPRAPTFRIRLGAHRGGSGELLENTMEAMENSMAQRSDLLELDCQLTRDRVVVVSHDENLCRQSGLNRDVGSLDFEDLPLYKEKLEVYFSPGHFAHGSDRRMVRLEDLFQRFPRTPMSVEIKGKNEELIREIAGLVRRYDRNEITIWASEKSSVMKKCKAANPEMPLSFTISRGFWVLLSYYLGLLPFIPIPEKFFFCFLPNIINRTYFPFSCSCLNQLLAVVSKWLIMRKSLIRHLEERGVQVVFWCLNEESDFEAAFSVGATGVITDYPTALRHYLDNHGPAARTS [GDPD3]", "target of assay": "HeLa Kyoto", "solubility change mitosis (log2)": -0.0964}
{"substance": "MGRRSSDTEEESRSKRKKKHRRRSSSSSSSDSRTYSRKKGGRKSRSKSRSWSRDLQPRSHSYDRRRRHRSSSSSSYGSRRKRSRSRSRGRGKSYRVQRSRSKSRTRRSRSRPRLRSHSRSSERSSHRRTRSRSRDRERRKGRDKEKREKEKDKGKDKELHNIKRGESGNIKAGLEHLPPAEQAKARLQLVLEAAAKADEALKAKERNEEEAKRRKEEDQATLVEQVKRVKEIEAIESDSFVQQTFRSSKEVKKSVEPSEVKQATSTSGPASAVADPPSTEKEIDPTSIPTAIKYQDDNSLAHPNLFIEKADAEEKWFKRLIALRQERLMGSPVA [RSRC1]", "target of assay": "HeLa Kyoto", "solubility change mitosis (log2)": 0.261}
{"substance": "MRAVLAREMDGRRVLGRFWSGWRRGLGVRPVPEDAGFGTEARHQRQPRGSCQRSGPLGDQPFAGLLPKNLSREELVDALRAAVVDRKGPLVTLNKPQGLPVTGKPGELTLFSVLPELSQSLGLREQELQVVRASGKESSGLVLLSSCPQTASRLQKYFTHARRAQRPTATYCAVTDGIPAASEGKIQAALKLEHIDGVNLTVPVKAPSRKDILEGVKKTLSHFRVVATGSGCALVQLQPLTVFSSQLQVHMVLQLCPVLGDHMYSARVGTVLGQRFLLPAENNKPQRQVLDEALLRRLHLTPSQAAQLPLHLHLHRLLLPGTRARDTPVELLAPLPPYFSRTLQCLGLRLQ [RPUSD3]", "target of assay": "HeLa Kyoto", "solubility change mitosis (log2)": 0.0294}
{"substance": "MATPGPVIPEVPFEPSKPPVIEGLSPTVYRNPESFKEKFVRKTRENPVVPIGCLATAAALTYGLYSFHRGNSQRSQLMMRTRIAAQGFTVAAILLGLAVTAMKSRP [HIGD2A]", "target of assay": "HeLa Kyoto", "solubility change mitosis (log2)": 0.482}
{"substance": "MAAPSEVAAIAPGEGDGGGGGFGSWLDGRLEALGVDRAVYGAYILGILQEEEEEEKLDALQGILSAFLEEDSLLNICKEIVERWSETQNVVTKVKKEDEVQAIATLIEKQAQIVVKPRMVSEEEKQRKAALLAQYADVTDEEDEADEKDDSGATTMNIGSDKLLFRNTNVEDVLNARKLERDSLRDESQRKKEQDKLQRERDKLAKQERKEKEKKRTQRGERKR [CCDC43]", "target of assay": "HeLa Kyoto", "solubility change mitosis (log2)": 0.216}
{"substance": "MVHQVLYRALVSTKWLAESIRTGKLGPGLRVLDASWYSPGTREARKEYLERHVPGASFFDIEECRDTASPYEMMLPSEAGFAEYVGRLGISNHTHVVVYDGEHLGSFYAPRVWWMFRVFGHRTVSVLNGGFRNWLKEGHPVTSEPSRPEPAVFKATLDRSLLKTYEQVLENLESKRFQLVDSRSQGRFLGTEPEPDAVGLDSGHIRGAVNMPFMDFLTEDGFEKGPEELRALFQTKKVDLSQPLIATCRKGVTACHVALAAYLCGKPDVAVYDGSWSEWFRRAPPESRVSQGKSEKA [TST]", "target of assay": "HeLa Kyoto", "solubility change mitosis (log2)": -0.0824}
